assay: HoxA9-arrested leukemia cell differentiation promoters – flow cytometry, MLPCN library, primary screen (AID 624256); details: ER-HoxA9 myeloid progenitors, lysozyme-GFP differentiation, at 10 µM; measured here: differentiation confirmed by MAC1 staining, stronger effect = higher value;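 note: cells exposed to compound for four days before flow analysis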
Screen size: about 360,000 compounds; about 3,700 (1%) were called active. Not shown: some 2% with an inconclusive outcome. The full list was thinned out, with actives kept by preference.
Parameter threshold = 0.7%. Response is 1 (yes) when GFP+ MAC1+ double positive meets or exceeds it, else 0 (no).

INSERT INTO assay_data (compound, answerlabel) VALUES
  ('CCCc1nc2ccccc2n1C(C)C(=O)NC(C)(C)C (configuration not stated)', '1 (yes)'),
  ('CN1C=CC=C/C1=C1\SC(=S)N(Cc2ccccc2)C1=O', '0 (no)'),
  ('COc1cc(/C=C2/SC(=S)N(Cc3ccccc3)C2=O)cc(OC)c1O', '1 (yes)'),
  ('COc1cc(N2CCCC2)c(OC)cc1/C=C(/C#N)c1cccc(Br)c1', '1 (yes)'),
  ('O=c1c(F)cn(C2CCCO2)c(=O)n1Cc1ccccc1Cl (configuration not stated)', '1 (yes)'),
  ('COc1ccccc1C(=O)OCC(=O)Nc1cccc(S(=O)(=O)NC2=NCCCCC2)c1', '1 (yes)'),
  ('N#C/C(=C\c1ccc(N2CCOCC2)o1)C(=O)N1CCOCC1', '0 (no)'),
  ('COc1ccc(CNC(=O)c2nnn(CC(=O)Nc3cc(C)cc(C)c3)c2N)cc1', '0 (no)'),
  ('Cc1ccc(F)c(S(=O)(=O)NC(=O)C2(C)CCN2C(=O)c2ccco2)c1 (configuration not stated)', '1 (yes)'),
  ('CCCCCNC(=O)C1C(=O)Nc2ccccc2C(=O)N1C(C)(C)C (configuration not stated)', '1 (yes)'),
  ('CNc1nc(=O)n(C2CCCO2)cc1C (configuration not stated)', '1 (yes)'),
  ('N#CC1=C(N)Oc2c(sc3ccccc23)C1c1ccco1 (configuration not stated)', '1 (yes)'),
  ('COC(=O)C[C@@H]1C=C[C@@H](NS(=O)(=O)c2cccc(OC)c2)[C@@H](CO)O1', '1 (yes)'),
  ('CCOC(=O)[C@]12CCC=C1N(Cc1cccc3ccccc13)C(=O)[C@H](CC(=O)NCc1cccc(C(F)(F)F)c1)C2', '0 (no)'),
  ('N#C/C(=C/c1ccc(N2CCCCC2)o1)C(=O)NCCc1c[nH]c2ccccc12', '1 (yes)'),
  ('COc1ccc(CCN=C2SCC(=O)N2Cc2ccccc2)cc1OC', '0 (no)'),
  ('CCCCn1nnnc1C(c1cccc(OC)c1OC)N1CCN(C/C=C/c2ccccc2)CC1 (configuration not stated)', '1 (yes)'),
  ('Cc1ccc(Cl)c(OCC(=O)N2CCc3ccccc3C2)c1', '0 (no)'),
  ('CCOc1ccc(/C=C(/C#N)c2nnc(N3CCOCC3)n2-c2ccccc2)cc1OC', '1 (yes)'),
  ('CCOC(=O)C1CCCN(C(=O)c2cccc3ccccc23)CC1 (configuration not stated)', '1 (yes)'),
  ('Nc1cccc(-c2cncc(N3CCN(Cc4ccccn4)CC3)n2)c1', '1 (yes)');

---

assay: HoxA9-arrested leukemia cell differentiation promoters – flow cytometry, MLPCN library, primary screen (AID 624256); details: ER-HoxA9 myeloid progenitors, lysozyme-GFP differentiation, at 10 µM; measured here: differentiation confirmed by MAC1 staining, stronger effect = higher value;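 note: cells exposed to compound for four days before flow analysis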
Hit rate of the full screen: of about 360,000 compounds, about 3,700 (1%) were called active. About 2% were inconclusive and are not listed. This is one part of a sample in which actives are shown more often than they occur.
# label = bin(measured GFP+ MAC1+ double positive), where bins are range 1 (below 0.7%), range 2 (0.7% to below 2%), range 3 (2% or more)

INSERT INTO measurements (molecule, answerlabel) VALUES
  ('CCC(c1nnnn1-c1ccc2c(c1)OCCO2)N1CCN(c2ccc(C(F)(F)F)cn2)CC1 (centres undefined)', 'range 1'),
  ('O=C1Nc2ccc(Br)cc2/C1=N/N=C/C1=C(N2CCOCC2)C(=C\c2ccccc2)/CC1', 'range 1'),
  ('Cc1cc(C)cc(NC(=O)CCN2C(=O)c3ccccc3C2=O)c1', 'range 1'),
  ('CC(OC(=O)CCCc1c[nH]c2ccccc12)C(=O)Nc1ccc(S(N)(=O)=O)cc1 (centres undefined)', 'range 1'),
  ('CCOc1ccc(-n2c(SCC(=O)Nc3cc(C(=O)O)ccc3Cl)nc3ccccc3c2=O)cc1', 'range 2'),
  ('Cc1ccc2nc(-c3ccccc3)c(CC3CCCCC3)n2c1', 'range 1'),
  ('CC1(C(=O)NS(=O)(=O)c2ccccc2Cl)CCN1C(=O)c1cccc(F)c1 (centres undefined)', 'range 2'),
  ('CCCCCCN1CCN(C2CN(Cc3cn(CCCCCC)nn3)S(=O)(=O)C2)CC1 (centres undefined)', 'range 1'),
  ('Cc1ccc2c(Cl)c(C(=O)NCCCn3ccnc3)sc2c1', 'range 1'),
  ('Cc1ccc(/C=C2\SC(=S)N(CCC(=O)Nc3ccc(O)cc3)C2=O)cc1', 'range 3'),
  ('CCCNC(=O)C1(C)CCN(C(=O)c2cc(F)ccc2C)C1 (centres undefined)', 'range 2'),
  ('Cc1ccc(NC(=O)CCN2C(=O)c3ccccc3C2=O)cc1C', 'range 1'),
  ('COC(=O)[C@@]12C[C@@H](CC(=O)NCCCCc3ccccc3)C(=O)N(Cc3ccccc3)C1=CCC(C)(C)C2', 'range 3'),
  ('Cc1ccc2nc(NC(=O)CSc3nc(=O)n(CCCN(C)C)c4c3CCC4)sc2c1', 'range 2'),
  ('CCOC(=O)N1CCN(C(=O)c2ccc3c(=O)n(CCc4ccc(OC)c(OC)c4)c(=O)[nH]c3c2)CC1', 'range 3'),
  ('CC(C)c1nc2ccc(C(=O)O)cc2[nH]1', 'range 3'),
  ('O=C(O)c1ccc(NN=CC2=C(N3CCOCC3)/C(=C/c3ccccc3)CC2)cc1', 'range 1'),
  ('OC(c1nc2ccc(F)cc2[nH]1)C(O)c1nc2ccc(F)cc2[nH]1 (centres undefined)', 'range 1'),
  ('Cc1ccc(NC(=O)C(C)OC(=O)Cc2c[nH]c3ccccc23)cc1S(=O)(=O)N1CCOCC1 (centres undefined)', 'range 2'),
  ('CCc1nc2ccc(C(=O)Nc3cccc(OC)c3)cn2c1N(CCC(C)C)CCN(C)C', 'range 2'),
  ('FC(F)(F)Oc1ccccc1C(c1nnnn1C1CCCCC1)N1CCN(C/C=C/c2ccccc2)CC1 (centres undefined)', 'range 2'),
  ('CCCN1C2=C(C(=O)CCC2)C(c2ccc(O)c(Br)c2)C2=C1CCCC2=O', 'range 3'),
  ('Cc1c(C(=O)OCC(=O)N(CCC#N)c2ccccc2)oc2c1ccc1ccccc12', 'range 3'),
  ('COc1ccc(CNC(=O)C2(CC3CC(c4ccccc4)=NO3)CCN(C(=O)c3cccc(O)c3)CC2)cc1 (centres undefined)', 'range 2'),
  ('O=C(c1ccccc1)N1CCC(CC2CC(c3ccc(Cl)cc3)=NO2)(C(=O)NCC2CCCCC2)CC1 (centres undefined)', 'range 2'),
  ('CC1(C)OC(=O)C2=C(C[C@@H](C3CC3)O[C@H]2c2ccc(Cl)cc2)O1', 'range 2'),
  ('CCOC(=O)CC(=O)CSc1nc(-c2ccccc2)cc(-c2ccc(Cl)cc2)c1C#N', 'range 3'),
  ('CC(C)NC(=O)N1Cc2cc(C(=O)NCC(F)(F)F)nc(-c3cccc(-c4cc5ccccc5o4)c3)c2[C@@H]1CCO', 'range 2'),
  ('CN(C)N1C(N)=C(C#N)C(c2ccc(Br)cc2)C2=C1CCCC2=O (centres undefined)', 'range 1'),
  ('CCSc1nc(-c2ccc(OC)cc2)cc(-c2ccc(OC)cc2)c1C#N', 'range 3'),
  ('O=C(NCC(O)c1nc2ccccc2[nH]1)c1ccc(Br)cc1 (centres undefined)', 'range 2'),
  ('C#CCNC(=O)C[C@@H]1C[C@@]2(C(=O)OCC)CCCC=C2N(Cc2ccco2)C1=O', 'range 2'),
  ('O=C1Nc2ccccc2NC(c2ccc3c(c2)OCO3)=C1N(Cc1ccc(F)cc1)C(=O)c1ccco1', 'range 1'),
  ('Cc1ccc2nc(NC(=O)C3CSC4(C)CCC(=O)N34)sc2c1 (centres undefined)', 'range 2'),
  ('COc1ccc(C2C3=C(CCCC3=O)N(CC(=O)O)C3=C2C(=O)CCC3)cc1', 'range 3'),
  ('Cc1ccc(-c2nc(C#N)c(NCCCn3ccnc3)o2)cc1', 'range 3');

---

test: HoxA9-arrested leukemia cell differentiation promoters – flow cytometry, MLPCN library, primary screen (AID 624256); settings: ER-HoxA9 myeloid progenitors, lysozyme-GFP differentiation, at 10 µM; measured here: differentiation confirmed by MAC1 staining, stronger effect = higher value;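 note: cells exposed to compound for four days before flow analysis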
Out of some 360,000 compounds screened, about 3,700 (1%) were called active. Roughly 2% stayed inconclusive and do not appear here. Many of the other results were omitted from the sample, so actives are more common in it than they were.
reportedMetric: GFP+ MAC1+ double positive (%)

INSERT INTO measurements (compound, outputunit, testvalue) VALUES
  ('CCOC(=O)CNC(=O)c1nn(-c2cccc(OC)c2)c(=O)c2ccccc12', '%', 0.7),
  ('NCCCCC(C(=O)O)N(C(=O)OCc1ccccc1)C(=O)OCc1ccccc1 (stereo not given)', '%', 0.9),
  ('CCS(=O)(=O)c1ccc(-c2cccc(NC(=O)c3ccc(Br)o3)c2)nn1', '%', 1.2),
  ('CCc1nc2c(OCC(=O)C(C)(C)C)cccn2c1N(C)C(=O)c1ccccc1F', '%', 0.3),
  ('CC(CNC(=O)c1ccc(Br)o1)NC(=O)c1ccc(Br)o1 (stereo not given)', '%', 4.1);
